Experimental target: human serum albumin (HSA) (Homo sapiens, UniProt P02768)
Construct: I (residues 1–195), II (196–383), and III (384–585); purchased Sigma
Sequence (P02768 25-609): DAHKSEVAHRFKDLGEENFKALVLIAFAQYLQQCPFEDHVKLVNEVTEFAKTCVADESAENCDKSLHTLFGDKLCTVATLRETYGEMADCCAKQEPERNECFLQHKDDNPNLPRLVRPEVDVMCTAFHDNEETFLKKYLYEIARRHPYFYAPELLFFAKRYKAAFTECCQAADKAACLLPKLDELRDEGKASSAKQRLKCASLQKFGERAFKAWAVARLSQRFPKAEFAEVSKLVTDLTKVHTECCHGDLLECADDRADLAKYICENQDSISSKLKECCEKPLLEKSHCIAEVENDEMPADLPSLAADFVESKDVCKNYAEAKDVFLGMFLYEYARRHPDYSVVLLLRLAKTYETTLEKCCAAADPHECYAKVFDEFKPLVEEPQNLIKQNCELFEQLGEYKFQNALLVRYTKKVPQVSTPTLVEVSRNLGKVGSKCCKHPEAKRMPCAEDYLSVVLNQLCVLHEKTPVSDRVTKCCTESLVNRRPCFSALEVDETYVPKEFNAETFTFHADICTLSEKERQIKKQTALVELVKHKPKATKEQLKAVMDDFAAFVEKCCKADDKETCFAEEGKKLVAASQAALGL
Assay procedure: Fluorescence quenching titration of HSA (Stern–Volmer analysis)
Assay type: binding
Condition parameters: HSA 5 µM, increasing compound concentration
Measured redshift at the maximal emission wavelength of Tyr and Trp residues of HSA, listed per entry for reference.
Could you give me the number in nm? Just the number is fine.

Example results:
Compound: [Ag+].[O-][Cl+3]([O-])([O-])[O-].c1ccc2c(c1)[nH]c1cnccc12.c1ccc2c(c1)[nH]c1cnccc12 [Compound 1, [Ag(Hnor)2](ClO4)]
Unit descriptor: nm
Assay result: 7
//
Compound: F[B-](F)(F)F.[Ag+].c1ccc2c(c1)[nH]c1cnccc12.c1ccc2c(c1)[nH]c1cnccc12 [Compound 4, [Ag(Hnor)2](BF4)]
Unit descriptor: nm
Assay result: 4
//
Compound: O=[N+]([O-])[O-].[Ag+].c1ccc2c(c1)[nH]c1cnccc12.c1ccc2c(c1)[nH]c1cnccc12 [Compound 2, [Ag(Hnor)2](NO3)]
Unit descriptor: nm
Assay result: 5

Given the compound CC#N.F[P-](F)(F)(F)(F)F.[Ag+].c1ccc2c(c1)[nH]c1cnccc12.c1ccc2c(c1)[nH]c1cnccc12 [Compound 3, [Ag(Hnor)2(MeCN)](PF6)] , what is its reported redshift at the maximal emission wavelength of Tyr and Trp residues of HSA?
4

Measured values drawn from paper PMC5889910 for this set.
